TESTED_ON: Interferon-inducible protein AIM2 (Mus musculus)
Sequence (Q91VJ1 whole entry): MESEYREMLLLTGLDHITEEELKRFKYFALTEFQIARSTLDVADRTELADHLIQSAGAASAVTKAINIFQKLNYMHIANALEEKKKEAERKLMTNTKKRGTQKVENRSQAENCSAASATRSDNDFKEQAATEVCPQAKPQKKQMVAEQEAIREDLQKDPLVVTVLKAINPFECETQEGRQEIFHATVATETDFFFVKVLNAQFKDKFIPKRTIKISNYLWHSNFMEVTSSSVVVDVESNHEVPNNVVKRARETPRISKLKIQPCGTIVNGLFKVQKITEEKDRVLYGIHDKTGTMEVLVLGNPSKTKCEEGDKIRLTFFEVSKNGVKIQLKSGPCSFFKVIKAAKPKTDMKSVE
ASSAY_DETAILS: Inhibition of AIM2 inflammasome in LPS-primed mouse J774.A1 cells assessed as reduction in IL-1beta secretion preincubated for 1 hr followed by poly(dA:dT) addition and measured after 4 hrs by ELISA
Format: cell-based
pIC50: −log10 of the molar value.
EXPERIMENTAL_ENDPOINT: pIC50

Value of pIC50 reported for the compound C#CCNS(=O)(=O)c1ccc(CCN(Cc2cc(Cl)ccc2OCCC)C(=O)Cc2csc3ccccc23)cc1 is < 5.00

Per the records, this compound ( C#CCN(C)S(=O)(=O)c1ccc(CCN(Cc2cc(Cl)ccc2OCCC)C(=O)Cc2ccsc2)cc1 ) has pIC50 equal to < 5.00

More entries:
Looking up C#CCNS(=O)(=O)c1ccc(CCN(Cc2cc(Cl)ccc2OCCC)C(=O)c2ccc(F)cc2)cc1 , I found its pIC50 recorded as < 5.00
